- Assay system: T1, recombinant human interleukin 12 (p40/p35 heterodimer) (human, UniProt P29460 23-328; P29459 23-219)
- T1 chain 1: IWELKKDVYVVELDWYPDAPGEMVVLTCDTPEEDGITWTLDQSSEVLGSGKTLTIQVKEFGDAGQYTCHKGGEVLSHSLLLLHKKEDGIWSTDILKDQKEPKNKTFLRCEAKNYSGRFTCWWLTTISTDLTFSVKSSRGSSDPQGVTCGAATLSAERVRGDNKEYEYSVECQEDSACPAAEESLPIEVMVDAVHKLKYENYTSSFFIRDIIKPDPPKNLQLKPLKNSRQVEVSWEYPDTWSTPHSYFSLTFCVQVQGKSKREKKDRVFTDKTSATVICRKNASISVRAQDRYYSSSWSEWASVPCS
- T1 chain 2: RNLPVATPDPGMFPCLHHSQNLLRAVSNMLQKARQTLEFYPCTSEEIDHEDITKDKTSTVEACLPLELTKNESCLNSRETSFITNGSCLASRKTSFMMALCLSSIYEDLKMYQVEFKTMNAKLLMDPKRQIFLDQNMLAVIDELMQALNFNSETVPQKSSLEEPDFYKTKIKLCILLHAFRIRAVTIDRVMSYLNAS
- Test summary: BIAcore

[
  {
    "Binder": "FIRYDGSLKYYADSVKG [Y61 H56 L]",
    "koff": "0.000264 s⁻¹"
  },
  {
    "Binder": "FIRYDGSTKYYADSVKG [Y61 H56 T]",
    "koff": "0.000235 s⁻¹"
  },
  {
    "Binder": "FIRYDGSNKNYADSVKG [Y61 H58 N]",
    "koff": "0.000831 s⁻¹"
  },
  {
    "Binder": "FIRYDGSGKYYADSVKG [Y61 H56 G]",
    "koff": "0.000272 s⁻¹"
  },
  {
    "Binder": "FIRYDGSHKYYADSVKG [Y61 H56 H]",
    "koff": "0.00042 s⁻¹"
  },
  {
    "Binder": "FIRYDGSPKYYADSVKG [Y61 H56 P]",
    "koff": "0.000299 s⁻¹"
  },
  {
    "Binder": "FIRYDFSNKYYADSVKG [Y61 H54 F]",
    "koff": "0.000663 s⁻¹"
  },
  {
    "Binder": "FIRYDGSNKIYADSVKG [Y61 H58 I]",
    "koff": "0.000657 s⁻¹"
  },
  {
    "Binder": "FIRYDGSNKFYADSVKG [Y61 H58 F]",
    "koff": "0.000794 s⁻¹"
  },
  {
    "Binder": "FIRYDGSNKLYADSVKG [Y61 H58 L]",
    "koff": "0.00073 s⁻¹"
  },
  {
    "Binder": "FIRYDGSNKVYADSVKG [Y61 H58 V]",
    "koff": "0.000524 s⁻¹"
  },
  {
    "Binder": "FIRYDGSNKSYADSVKG [Y61 H58 S]",
    "koff": "0.000941 s⁻¹"
  },
  {
    "Binder": "FIRYDGSIKYYADSVKG [Y61 H56 I]",
    "koff": "0.000169 s⁻¹"
  },
  {
    "Binder": "FIRYDGSFKYYADSVKG [Y61 H56 F]",
    "koff": "0.000345 s⁻¹"
  },
  {
    "Binder": "FIRYDGSNKEYADSVKG [Y61 H58 E]",
    "koff": "0.000415 s⁻¹"
  },
  {
    "Binder": "FIRYDGSMKYYADSVKG [Y61 H56 M]",
    "koff": "0.000383 s⁻¹"
  },
  {
    "Binder": "FIRYDGSSKYYADSVKG [Y61 H56 S]",
    "koff": "0.000624 s⁻¹"
  },
  {
    "Binder": "FIRYDGSNKPYADSVKG [Y61 H58 P]",
    "koff": "0.000628 s⁻¹"
  },
  {
    "Binder": "FIRYDGSYKYYADSVKG [Y61 H56 Y]",
    "koff": "0.00039 s⁻¹"
  }
]
